A collection of variants and their measured protein stability index
B1: CDC14A (parent)
chain: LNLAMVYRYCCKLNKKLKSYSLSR

variants of: B1; experiment: protein stability index of a GFP-peptide fusion (GPS, HEK-293T) (PSI 1-6); higher = more stable; details: c terminus: a fixed tail appended;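 further: lentivirally expressed fusions sorted by FACS into six bins by GFP to DsRed ratio, PSI derived from sequencing read proportions per bin multiplied by bin number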

Worked examples follow.
K16W	2.81
S23P	2.95
C10R	1.59
N14F	2.31
R8P	2.09
N14C	3.38
K12R	2.13
C11E	1.62
L22C	2.92
Y20D	3.34

Which protein stability index value is on record for "R24A" ?
3.55

Which protein stability index value is on record for "K12S" ?
2.58

Which protein stability index value is on record for "Y9A" ?
2.3

Which protein stability index value is on record for "S19N" ?
2.8

Which protein stability index value is on record for "K16Y" ?
2.72

Which protein stability index value is on record for "L13T" ?
2.08

Which protein stability index value is on record for "K18H" ?
2.96

Which protein stability index value is on record for "K15M" ?
1.07

Which protein stability index value is on record for "Y9Q" ?
3.9

Which protein stability index value is on record for "K16C" ?
4.54

Which protein stability index value is on record for "K12G" ?
1.89

Which protein stability index value is on record for "S23H" ?
2.36

Which protein stability index value is on record for "C11V" ?
2.45
